Data credit: patent US20240140931A1

biological target: Human full-length SHP2 recombinant protein (Homo sapiens (Human)); test: Assay of full-length SHP2 phosphatase activity; conditions: DiFMUP substrate, with activating peptide
property_label: pIC50
Friendly reminder that pIC50 comes from taking -log10 of the concentration in mol/L.

Problem: Quick check: pIC50 of C#Cc1ccc2c(c1)[C@@H](N)C1(CCN(c3ncc(Sc4ccnc(N)c4Cl)n4nccc34)CC1)C2 ?
Result: 8.22

---

biological target: Human full-length SHP2 recombinant protein (Homo sapiens (Human), UniProt Q06124); assay: Assay of full-length SHP2 phosphatase activity; conditions: DiFMUP substrate, with activating peptide
Sequence (Q06124 whole entry): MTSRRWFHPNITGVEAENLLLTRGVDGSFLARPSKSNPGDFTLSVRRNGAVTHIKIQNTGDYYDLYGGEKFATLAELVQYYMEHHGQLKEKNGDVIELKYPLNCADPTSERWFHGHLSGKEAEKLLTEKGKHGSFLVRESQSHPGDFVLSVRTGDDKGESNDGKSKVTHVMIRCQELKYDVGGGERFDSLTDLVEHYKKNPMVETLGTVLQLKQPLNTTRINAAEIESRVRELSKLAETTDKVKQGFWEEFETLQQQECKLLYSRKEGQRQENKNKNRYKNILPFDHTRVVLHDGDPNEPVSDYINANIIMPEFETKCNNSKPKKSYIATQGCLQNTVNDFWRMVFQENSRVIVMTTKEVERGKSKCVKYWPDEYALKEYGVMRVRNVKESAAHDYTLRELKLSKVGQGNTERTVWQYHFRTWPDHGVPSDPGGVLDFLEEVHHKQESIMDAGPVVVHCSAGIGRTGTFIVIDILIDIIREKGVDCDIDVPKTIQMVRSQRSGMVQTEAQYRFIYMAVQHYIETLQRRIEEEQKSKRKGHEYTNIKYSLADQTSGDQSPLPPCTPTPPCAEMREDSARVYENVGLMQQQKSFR
property_label: IC50 (nM)
# number only, unit nM dropped from output

Use these answered entries as a reference point.
C#Cc1ccc2c(c1)[C@@H](N)C1(CCN(c3cc(=O)n(-c4cc(OC)ccc4Cl)c(C)n3)CC1)C2: 60
CNC(=O)C#Cc1ccc2c(c1)[C@@H](N)C1(CCN(c3cnc(Sc4ccnc(N)c4Cl)cn3)CC1)O2: 0.9
COCC#Cc1ccc2c(c1)[C@@H](N)C1(CCN(c3cc(=O)n(-c4ccc(F)c(OC)c4Cl)c(C)n3)CC1)C2 [Compound 158]: 3
COCC#Cc1ccc2c(c1)[C@@H](N)C1(CCN(c3ncc(Sc4ccnc(C)n4)c4nccn34)CC1)C2: 3
COCC#Cc1ccc2c(c1)[C@@H](N)C1(CCN(c3cc(=O)n(-c4ccc(F)c(Cl)c4Cl)c(C)n3)CC1)C2 (atropisomer, axis not shown) [Compound 125]: 96
CCNC(=O)C#Cc1ccc2c(c1)[C@@H](N)C1(CCN(c3cnc(Sc4cccnc4C(F)(F)F)c(N)n3)CC1)C2: 1.7

Consider the additional molecule presented here.
Problem: Any idea what its IC50 is? The molecule is CNC(=O)C#Cc1ccc2c(c1)[C@@H](N)C1(CCN(c3cnc(Sc4ccnc(N)c4Cl)cn3)CC1)C2
Result: 1

---

target: Human full-length SHP2 recombinant protein (Homo sapiens (Human)); experiment: Assay of full-length SHP2 phosphatase activity; conditions: DiFMUP substrate, with activating peptide
# Lookup of reported pIC50 keyed by entry
Hey, just a heads up that pIC50 is the negative log base 10 of the concentration in molar.

Some solved entries appear below for comparison.
CNC(=O)C#Cc1ccc2c(c1)[C@@H](N)C1(CCN(c3cc(=O)n(-c4cccc(OC)c4Cl)c(C)n3)CC1)C2 (atropisomer, axis not shown) [Compound 182]: 9.00
CNC(=O)C#Cc1ccc2c(c1)[C@@H](N)C1(CCN(c3nc(C)n(-c4cccc(Cl)c4Cl)c(=O)c3C)CC1)C2 [Compound 174]: 8.22
COCC#Cc1cccc2c1CC1(CCN(c3cc(=O)n(-c4cccc(Cl)c4Cl)c(C)n3)CC1)[C@@H]2N [Compound 96]: 8.30
C#Cc1ccc2c(c1)[C@@H](N)C1(CCN(c3cc(=O)n(-c4ccc(F)c(F)c4Cl)c(C)n3)CC1)C2 (atropisomer, axis not shown) [Compound 114]: 7.28
Nc1nccc(Sc2cnc(N3CCC4(CC3)Cc3ccc(C#CC(=O)O)cc3[C@H]4N)cn2)c1Cl [Compound 279]: 9.40
C#Cc1ccc2c(c1)[C@@H](N)C1(CCN(c3ncc(Sc4ccnc(N)c4Cl)n4ncnc34)CC1)C2 [Compound 179]: 8.40

Next item in the queue.
Problem: Recorded pIC50 of COCC#Cc1cc(F)c2c(c1)[C@@H](N)C1(CCN(c3ncc(Sc4ccnc(C)n4)c4nccn34)CC1)C2 [Compound 175] , please.
Result: 7.85
